# System: Streptococcus pneumoniae
# ASSAY_PROCEDURE: Antibacterial activity against Streptococcus pneumoniae TUPELO by broth microdilution method
# Assay type: functional
MEASURED_ENDPOINT: MIC (µg/mL)
Give just the number in µg/mL; leave the unit off.

| MOLECULE | STUDY_TARGET | MIC (µg/mL) |
| --- | --- | --- |
| CO[C@@H]1[C@@H](OC(N)=O)[C@@H](O)[C@H](Oc2ccc3c(O)c(NC(=O)c4ccc(O)c(CC=C(C)C)c4)c(=O)oc3c2C)OC1(C)C [NOVOBIOCIN] | Streptococcus pneumoniae | 2 |
| CO[C@@H]1[C@@H](OC(=O)c2ccc(C)[nH]2)[C@@H](O)[C@H](Oc2ccc3c(O)c(NC(=O)c4cc(C)c(O)c(C)c4)c(=O)oc3c2Cl)OC1(C)C | Streptococcus pneumoniae | 8 |
| CO[C@@H]1[C@@H](OC(=O)c2ccc(C)[nH]2)[C@@H](O)[C@H](Oc2ccc3c(O)c(NC(=O)c4ccc(N)c(C)c4)c(=O)oc3c2C)OC1(C)C | Streptococcus pneumoniae | 4 |

Exercise: Please list MIC recorded for the molecule COc1cc(/C=C/C(=O)Nc2c(O)c3ccc(O[C@@H]4OC(C)(C)[C@H](OC)[C@@H](OC(=O)c5ccc(C)[nH]5)[C@H]4O)c(Cl)c3oc2=O)ccc1O
Key: 16

Exercise: Please list MIC recorded for the molecule C=CCc1cc(C(=O)Nc2c(O)c3ccc(O[C@@H]4OC(C)(C)[C@H](OC)[C@@H](OC(=O)c5ccc(C)[nH]5)[C@H]4O)c(C)c3oc2=O)ccc1O
Key: 2
